Entries with their measured IC50, system Human recombinant GST-PI3Kγ (Homo sapiens):
Write the answer as a number in nM, unit excluded.

1. O=C1NC(=O)C(=Cc2ccc3c(c2)C(=O)c2ccccc2C3=O)S1 [Example 4] ... 316

The observed IC50 for CN1C(=O)COc2ccc(C=C3SC(=O)NC3=O)cc21 [Example 6] when tested with Human recombinant GST-PI3Kγ (Homo sapiens) stands at 30

Form field IC50 for item Cc1coc2ccc(C=C3SC(=O)NC3=O)cc12 [Example 8] on Human recombinant GST-PI3Kγ (Homo sapiens): 30

# value of IC50, Human recombinant GST-PI3Kγ (Homo sapiens), item O=C(O)C=Cc1coc2ccc(C=C3SC(=O)NC3=O)cc12 [Example 9] = 8

Sample N#CN=C1NC(=O)C(=Cc2ccc3c(c2)OCO3)S1 [Example 14] , system: Human recombinant GST-PI3Kγ (Homo sapiens). Its IC50 is 21

---

- target_entity: Human recombinant GST-PI3Kγ (Homo sapiens)
- Sequence (P48736 whole entry): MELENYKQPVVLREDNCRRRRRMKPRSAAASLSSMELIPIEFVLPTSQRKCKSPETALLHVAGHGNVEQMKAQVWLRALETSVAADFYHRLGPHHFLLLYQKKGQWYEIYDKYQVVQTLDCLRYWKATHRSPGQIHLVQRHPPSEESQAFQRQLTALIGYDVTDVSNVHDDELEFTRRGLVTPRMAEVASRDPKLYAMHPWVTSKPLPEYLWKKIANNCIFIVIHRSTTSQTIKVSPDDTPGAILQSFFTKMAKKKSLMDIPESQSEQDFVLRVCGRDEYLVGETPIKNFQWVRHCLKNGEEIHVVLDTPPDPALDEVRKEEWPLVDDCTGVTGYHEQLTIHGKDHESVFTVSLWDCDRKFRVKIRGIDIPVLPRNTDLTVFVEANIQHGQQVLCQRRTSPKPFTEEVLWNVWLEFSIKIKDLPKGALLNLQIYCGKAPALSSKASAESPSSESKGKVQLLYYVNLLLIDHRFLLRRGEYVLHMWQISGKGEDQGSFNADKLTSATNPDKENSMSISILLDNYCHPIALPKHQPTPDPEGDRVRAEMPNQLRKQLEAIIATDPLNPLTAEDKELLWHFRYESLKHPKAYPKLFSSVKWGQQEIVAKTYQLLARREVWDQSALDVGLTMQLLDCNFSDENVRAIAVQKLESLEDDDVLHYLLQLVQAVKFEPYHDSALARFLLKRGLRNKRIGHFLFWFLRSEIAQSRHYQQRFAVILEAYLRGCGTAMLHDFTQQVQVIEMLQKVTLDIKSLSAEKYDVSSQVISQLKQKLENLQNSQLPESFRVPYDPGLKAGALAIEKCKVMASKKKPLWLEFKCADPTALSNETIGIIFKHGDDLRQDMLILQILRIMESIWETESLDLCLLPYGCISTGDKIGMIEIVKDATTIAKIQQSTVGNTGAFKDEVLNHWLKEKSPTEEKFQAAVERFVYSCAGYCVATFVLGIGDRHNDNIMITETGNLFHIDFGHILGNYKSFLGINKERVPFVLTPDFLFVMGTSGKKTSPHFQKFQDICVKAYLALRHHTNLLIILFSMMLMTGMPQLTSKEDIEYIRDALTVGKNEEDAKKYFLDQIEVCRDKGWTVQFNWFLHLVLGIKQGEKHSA
IC50 less than 100 nM is 1; IC50 greater than or equal to 100 nM is 0.

Examples with answers:
1) O=C1NC(=O)C(=Cc2ccc3c(c2)NCCO3)S1 ... 0
2) O=C1NC(=O)C(=Cc2ccc3cc(F)oc3c2)S1 ... 0
3) O=C1NC(=O)C(=Cc2ccc3c(c2)OCO3)S1 ... 1
4) O=C1NC(=S)SC1=Cc1ccc2c(c1)OCO2 ... 0
5) O=C1NC(=O)C(=Cc2ccc3c(c2)OCCO3)S1 ... 1
6) Nc1noc2ccc(C=C3SC(=O)NC3=O)cc12 ... 1
7) N=C1NC(=O)C(=Cc2ccc3c(c2)OCO3)S1 ... 0

# ---- query molecule ----
In the record for `O=C1NC(=O)C(=Cc2ccc3nonc3c2)S1` , is IC50 less than 100 nM?
1

---

In what follows, each item is paired with its pIC50 for Human recombinant GST-PI3Kδ (Homo sapiens, UniProt O00329).
// pIC50 is dimensionless: -log10 of concentration (M)

1) O=C1NC(=O)C(=Cc2ccc3c(c2)C(=O)c2ccccc2C3=O)S1 ... 5.31
2) O=C1NC(=O)C(=Cc2ccc3nonc3c2)S1 ... 5.56
3) N#CN=C1NC(=O)C(=Cc2ccc3c(c2)OCO3)S1 ... 5.93

Readout pIC50 for `Cc1coc2ccc(C=C3SC(=O)NC3=O)cc12` , test system Human recombinant GST-PI3Kδ (Homo sapiens, UniProt O00329), was 5.71

Field pIC50 (system: Human recombinant GST-PI3Kδ (Homo sapiens, UniProt O00329)) for entry `O=C(O)C=Cc1coc2ccc(C=C3SC(=O)NC3=O)cc12` = 5.61

Noted pIC50 for `O=C1NC(=O)C(=Cc2ccc3c(c2)OCO3)S1` , tested on Human recombinant GST-PI3Kδ (Homo sapiens, UniProt O00329): 5.77

For `Nc1noc2ccc(C=C3SC(=O)NC3=O)cc12` on Human recombinant GST-PI3Kδ (Homo sapiens, UniProt O00329), measured pIC50 was 5.00

---

Listing of recorded IC50 by entry.
- target_entity: Human recombinant GST-PI3Kα (Homo sapiens, UniProt P42336)
- Sequence (P42336 whole entry): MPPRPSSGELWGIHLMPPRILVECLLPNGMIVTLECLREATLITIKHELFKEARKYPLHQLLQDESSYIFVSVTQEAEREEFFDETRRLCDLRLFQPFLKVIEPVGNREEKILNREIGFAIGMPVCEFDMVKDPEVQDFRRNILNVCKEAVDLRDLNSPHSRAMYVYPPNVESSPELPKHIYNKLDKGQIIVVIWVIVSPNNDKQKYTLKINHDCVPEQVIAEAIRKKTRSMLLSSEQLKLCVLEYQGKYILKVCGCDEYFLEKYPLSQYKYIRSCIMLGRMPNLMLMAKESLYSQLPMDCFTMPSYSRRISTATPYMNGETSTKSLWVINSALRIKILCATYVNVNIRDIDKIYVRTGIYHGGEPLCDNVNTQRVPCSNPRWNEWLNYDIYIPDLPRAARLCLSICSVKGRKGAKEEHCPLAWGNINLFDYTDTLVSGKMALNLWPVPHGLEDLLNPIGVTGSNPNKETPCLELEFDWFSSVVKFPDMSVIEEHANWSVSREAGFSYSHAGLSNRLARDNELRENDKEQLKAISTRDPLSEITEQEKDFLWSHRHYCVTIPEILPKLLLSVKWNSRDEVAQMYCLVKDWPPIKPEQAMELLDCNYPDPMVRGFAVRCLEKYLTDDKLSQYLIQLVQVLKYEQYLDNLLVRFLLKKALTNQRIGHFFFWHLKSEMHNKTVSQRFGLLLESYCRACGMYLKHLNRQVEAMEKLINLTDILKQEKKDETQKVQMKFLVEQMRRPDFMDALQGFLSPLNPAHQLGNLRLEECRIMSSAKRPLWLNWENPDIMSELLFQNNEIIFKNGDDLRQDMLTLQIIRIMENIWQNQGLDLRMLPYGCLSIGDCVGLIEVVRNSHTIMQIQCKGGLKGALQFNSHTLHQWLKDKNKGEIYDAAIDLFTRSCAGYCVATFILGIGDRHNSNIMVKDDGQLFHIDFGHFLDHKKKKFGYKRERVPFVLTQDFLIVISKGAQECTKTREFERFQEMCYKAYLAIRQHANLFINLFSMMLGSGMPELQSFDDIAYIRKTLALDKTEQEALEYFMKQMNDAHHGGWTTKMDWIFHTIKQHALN
Provide the reading as a plain figure in nM.

1) O=C(O)C=Cc1coc2ccc(C=C3SC(=O)NC3=O)cc12 [Example 9] ... 32
2) O=C1NC(=O)C(=Cc2ccc3c(c2)C(=O)c2ccccc2C3=O)S1 [Example 4] ... 1370
3) Nc1noc2ccc(C=C3SC(=O)NC3=O)cc12 [Example 11] ... 460
4) CN1C(=O)COc2ccc(C=C3SC(=O)NC3=O)cc21 [Example 6] ... 170

Readout IC50 for O=C1NC(=O)C(=Cc2ccc3c(c2)NCCO3)S1 [Example 10] , test system Human recombinant GST-PI3Kα (Homo sapiens, UniProt P42336), was 2100

Noted IC50 for O=C1NC(=O)C(=Cc2ccc3nonc3c2)S1 [Example 12] , tested on Human recombinant GST-PI3Kα (Homo sapiens, UniProt P42336): 370

Reported Human recombinant GST-PI3Kα (Homo sapiens, UniProt P42336) IC50 for item Cc1coc2ccc(C=C3SC(=O)NC3=O)cc12 [Example 8] was 135

Fill in: Human recombinant GST-PI3Kα (Homo sapiens, UniProt P42336) IC50 for O=C1NC(=S)SC1=Cc1ccc2c(c1)OCO2 [Example 2] = 450

Observed IC50 on Human recombinant GST-PI3Kα (Homo sapiens, UniProt P42336), entry O=C1NC(=O)C(=Cc2ccc3cc(F)oc3c2)S1 [Example 13] , equals 1200

Summary line: O=C1NC(=O)C(=Cc2ccc3c(c2)OCO3)S1 [Example 1] , Human recombinant GST-PI3Kα (Homo sapiens, UniProt P42336), reported IC50 = 250

The reported IC50 value, Human recombinant GST-PI3Kα (Homo sapiens, UniProt P42336), for O=C1NC(=O)C(=Cc2ccc3c(c2)OCCO3)S1 [Example 3] reads 310

Summary: N#CN=C1NC(=O)C(=Cc2ccc3c(c2)OCO3)S1 [Example 14] , Human recombinant GST-PI3Kα (Homo sapiens, UniProt P42336), IC50 = 231
